test system: human liver microsomes, metabolic stability half-life; assay: NCATS Human Liver Microsomal (HLM) Stability Profiling; settings: higher = more stable; screened at 1 µM (by protocol)
MEASURE: half-life

molecule=CC1(C)O[C@@H]2C[C@H]3[C@@H]4C[C@H](F)C5=CC(=O)CC[C@]5(C)[C@H]4[C@@H](O)C[C@]3(C)[C@]2(C(=O)CO)O1 measure=half-life reported_result="18 min"
molecule=C[C@@H]1C[C@H]2[C@@H]3CCC4=CC(=O)C=C[C@]4(C)[C@@]3(F)[C@@H](O)C[C@]2(C)[C@H]1C(=O)CO measure=half-life reported_result="57.3 min"
molecule=CCCCS(=O)(=O)N[C@@H](Cc1ccc(OCCCCC2CCNCC2)cc1)C(=O)O measure=half-life reported_result="> 120 min"
molecule=CC(C)=CCC1C(=O)N(c2ccccc2)N(c2ccccc2)C1=O measure=half-life reported_result="> 120 min"
molecule=O=C(Cn1cnc2onc(-c3ccc(F)cc3)c2c1=O)Nc1cccc(C(F)(F)F)c1 measure=half-life reported_result="40.4 min"

Now for another entry.
[ask] // query half-life value for entry Clc1ccc(C(Cn2ccnc2)OCc2ccc(Sc3ccccc3)cc2)c(Cl)c1 (stereo unspecified)
[reply] 54.1 min

---

Measured half-life of individual entries
tested on: human liver microsomes, metabolic stability half-life; experiment: NCATS Human Liver Microsomal (HLM) Stability Profiling; conditions: higher = more stable; screened at 1 µM (by protocol)
Give the value, in units of min, as a plain number.

Consider the worked cases shown below.
compound=CCCCOCCOC(=O)c1cccnc1 scale_unit=min reported_result=0.66
compound=Cc1cc(O)c2c(c1)C(=O)c1cccc(O)c1C2=O scale_unit=min reported_result=1.86
compound=CC(C)(C)c1ccc(S(=O)(=O)c2cnc(SCC(=O)Nc3ccc(F)c(Cl)c3)[nH]c2=O)cc1 scale_unit=min reported_result=73.1
compound="Cc1cccc(C)c1OCC(C)N (configuration not stated)" scale_unit=min reported_result=114

Now for another entry.
[ask] // query half-life value for entry `COc1cc(OC)cc(OC)c1`
[reply] 18.1

---

system: human liver microsomes, metabolic stability half-life; assay: NCATS Human Liver Microsomal (HLM) Stability Profiling; conditions: higher = more stable; screened at 1 µM (by protocol)
Could you label it met if measured half-life is 20 min or higher, and not met otherwise?

Would you please look over these solved cases?
molecule=Cc1cccc(C=NNc2cc(N3CCOCC3)nc(OCCc3ccccn3)n2)c1 assigned_category="not met"
molecule=COc1cnc(-c2ccc(Cn3c(CC(C)(C)C(=O)O)c(SC(C)(C)C)c4cc(OC[C@@H]5Cc6ccccc6N5C(C)=O)ccc43)cc2)nc1 assigned_category="not met"
molecule=CCOC(=O)C1=Cc2ccc(C(F)(F)C(F)(F)F)cc2N=C(N)C1 assigned_category="not met"
molecule=Cc1ccc(-c2noc([C@@H]3Cc4nc[nH]c4CN3Cc3cccc(C#N)c3)n2)cc1 assigned_category="not met"
molecule=O=C(c1ccc(F)cc1)C1CCN(CCn2c(=S)[nH]c3ccccc3c2=O)CC1 assigned_category="not met"
molecule="CC1=C(C(=O)Nc2cccc(-c3ccn[nH]3)c2)C(c2ccccc2Cl)N=C(Nc2nc3ccccc3o2)N1 (stereo not given)" assigned_category=met
molecule=CN(C)c1cc2c(cc1Sc1nc3c(N)nccc3n1CCNCC(C)(C)C)OCO2 assigned_category="not met"
molecule="CCCC(Nc1nc(-c2ccc(NC(=O)NCC)c(OC)c2)ncc1C)c1cccnc1 (stereo not given)" assigned_category=met

[ask] I'd appreciate it if you could say whether Clc1ccc(COC(Cn2ccnc2)c2ccc(Cl)cc2Cl)cc1 (stereo not given) has half-life at least equal to 20 min.
[reply] met
